Target: T1, human CD8 on human pan T cells (CD4-negative population) (human, UniProt P01732 22-235; P10966 22-210)
T1 construct: whole, on cells; Endogenous CD8 on primary human pan T cells, read in the CD4-negative gate; also called CD8α/β
T1 sequence (P01732 22-235, chain 1 of 2): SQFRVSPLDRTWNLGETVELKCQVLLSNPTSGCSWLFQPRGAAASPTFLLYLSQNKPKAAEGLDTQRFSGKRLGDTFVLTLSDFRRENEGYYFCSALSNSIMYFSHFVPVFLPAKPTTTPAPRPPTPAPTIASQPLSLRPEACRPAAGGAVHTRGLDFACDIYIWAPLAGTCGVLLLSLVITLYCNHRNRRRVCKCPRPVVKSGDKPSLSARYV
T1 sequence (P10966 22-210, chain 2 of 2): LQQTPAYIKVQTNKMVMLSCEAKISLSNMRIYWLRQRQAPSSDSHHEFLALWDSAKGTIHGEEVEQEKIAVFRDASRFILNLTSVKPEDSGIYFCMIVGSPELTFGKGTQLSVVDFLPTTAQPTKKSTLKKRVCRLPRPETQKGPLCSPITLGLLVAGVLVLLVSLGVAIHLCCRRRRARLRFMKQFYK
Assay: flow cytometry, 20 nM antibody on human pan T cells, A647 anti-human IgG Fc; geomean ratio in CD4-negative population
READOUT_KIND: Cell Binding to Human PanT Signal/Background (of CD4 negative population)
Quick one: just the number, no unit, thanks!

CD8B319 (antibody, human IgG1, kappa, V domains shown, Full-length human IgG1, kappa; V regions recovered from mouse hybridoma) VH: QVQLKESGPELKKPGETVKISCKASGYSFTAYYMHWVKQSPEKSLEWIGEINPSAGGTTYNQKFKAKATLTVDKSSSTAFIQLKSLTSEDSAVYYCARWTNPFDYWGQGTTLTVSS VL: DIVMTQSQKFMSTTVGDRVSITCKASQNVGTAVAWYQQKPGQSPKLLIYSASYRYTGVPDRFTGSGSGTHFTLTISNIQSEDLADYFCQQYNNYLTFGSGTKLEIKR | 16

State its Cell Binding to Human PanT Signal/Background (of CD4 negative population): CD8B356 (antibody, human IgG1, kappa, V domains shown, Full-length human IgG1, kappa; V regions recovered from mouse hybridoma) VH: DVQLQESGPGLVKPSQSLSLTCSVTGYSITSGYYWNWIRQFPGNKLEWMGYISYDGSNNYNPSLKNRISITRDTSKNQFFLKLNSVTTEDTATYYCVRNHGDAMDYWGQGTSVTVSS VL: DIVLTQSQKFMSTTVGDRVSITCKASQNVGTAVAWYQQKPGQSPKLLIYSASYRYTGVPDRFTGSGSGTHFTLTISNMQSEDLADYFCQQYSSYLTFGSGTKLEIKR
777

State its Cell Binding to Human PanT Signal/Background (of CD4 negative population): CD8B304 (antibody, human IgG1, kappa, V domains shown, Full-length human IgG1, kappa; V regions recovered from mouse hybridoma) VH: QVTLKESGPGILKPSQTLSLTCSFSGFSLSTSGMNVGWIRQPSGKGLEWLAHIWWDDDKYYNPSLKSQLTISKDTSRNQVFLKITSVDTADTATYYCARRGNYGNYEFAYWGQGTTVTVSS VL: DIQMTQTTSSLSASLGDRVTISCRASQDIRNYLNWYQQKPDGTVKLLIYHTSRLHSGVPSRFSGSGSGTDYSLTISNLDQEDIATYFCQQGNTLPWTFGAGTKLELKR
923

State its Cell Binding to Human PanT Signal/Background (of CD4 negative population): CD8B213 (antibody, human IgG1, kappa, V domains shown, Full-length human IgG1, kappa; V regions recovered from mouse hybridoma) VH: EVQLQQSGPELVKPGDSMKMSCKASGYIFTDYYMDWVKQSHGKSLEWIGYIYPNNGITSYNQKFKGRATLTIDKSSSTAYMELHSLTSEDSAVYYCARSIYYDHGGGFPYWGQGTSVTVSS VL: DIVLTQSQKFMSTSVGDRVSVTCKASQNVDKYVAWYQQKPGQSPKALIYSASYRYSGVPDRFTGSGSGTDFTLTISNVQSEDLAEYFCQQYNTYPSFGSGTKLEMKR
827
